Tested system: ENaC (Epithelial Sodium Channel) (Mus musculus, UniProt Q61180+Q9WU38+Q9WU39)
Construct: Mouse kidney M-1 cells were cultivated in DMEM; endogenous in cells
Sequence (Q61180 whole entry): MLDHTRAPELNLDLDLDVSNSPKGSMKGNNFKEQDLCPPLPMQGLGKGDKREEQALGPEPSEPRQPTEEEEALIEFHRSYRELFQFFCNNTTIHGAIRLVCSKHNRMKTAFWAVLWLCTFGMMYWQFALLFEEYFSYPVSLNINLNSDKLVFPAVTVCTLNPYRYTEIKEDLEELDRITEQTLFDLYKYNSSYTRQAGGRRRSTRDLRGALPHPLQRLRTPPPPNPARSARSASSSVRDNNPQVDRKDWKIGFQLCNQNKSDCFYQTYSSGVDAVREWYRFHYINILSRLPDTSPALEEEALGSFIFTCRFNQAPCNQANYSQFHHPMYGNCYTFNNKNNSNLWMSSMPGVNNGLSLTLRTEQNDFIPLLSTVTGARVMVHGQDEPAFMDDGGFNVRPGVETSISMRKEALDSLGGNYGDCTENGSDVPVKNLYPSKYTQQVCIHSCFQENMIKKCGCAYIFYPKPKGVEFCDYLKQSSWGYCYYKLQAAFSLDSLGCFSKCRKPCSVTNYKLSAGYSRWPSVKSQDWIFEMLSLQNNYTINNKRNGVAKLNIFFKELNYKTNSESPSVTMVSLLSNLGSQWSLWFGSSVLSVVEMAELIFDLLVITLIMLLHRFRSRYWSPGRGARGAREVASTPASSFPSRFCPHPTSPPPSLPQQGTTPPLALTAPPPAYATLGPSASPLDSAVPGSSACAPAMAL
Sequence (Q9WU38 whole entry): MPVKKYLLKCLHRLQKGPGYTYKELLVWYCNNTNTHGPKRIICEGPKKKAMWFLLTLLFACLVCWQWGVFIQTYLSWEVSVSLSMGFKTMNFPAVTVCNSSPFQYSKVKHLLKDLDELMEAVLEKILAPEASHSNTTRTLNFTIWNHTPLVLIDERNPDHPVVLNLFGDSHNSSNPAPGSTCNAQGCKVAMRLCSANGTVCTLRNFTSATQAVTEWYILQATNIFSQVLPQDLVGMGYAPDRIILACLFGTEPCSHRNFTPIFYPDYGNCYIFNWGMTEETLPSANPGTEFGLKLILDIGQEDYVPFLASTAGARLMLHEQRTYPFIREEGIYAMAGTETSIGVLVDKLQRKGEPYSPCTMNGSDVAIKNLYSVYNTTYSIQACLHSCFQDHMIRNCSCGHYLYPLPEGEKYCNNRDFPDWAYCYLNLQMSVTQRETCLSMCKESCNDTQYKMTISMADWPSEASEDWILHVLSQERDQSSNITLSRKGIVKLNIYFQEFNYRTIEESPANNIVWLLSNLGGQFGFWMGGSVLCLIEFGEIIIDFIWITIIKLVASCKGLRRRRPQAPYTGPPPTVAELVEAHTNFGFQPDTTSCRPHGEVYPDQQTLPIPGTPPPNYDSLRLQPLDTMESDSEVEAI
Sequence (Q9WU39 whole entry): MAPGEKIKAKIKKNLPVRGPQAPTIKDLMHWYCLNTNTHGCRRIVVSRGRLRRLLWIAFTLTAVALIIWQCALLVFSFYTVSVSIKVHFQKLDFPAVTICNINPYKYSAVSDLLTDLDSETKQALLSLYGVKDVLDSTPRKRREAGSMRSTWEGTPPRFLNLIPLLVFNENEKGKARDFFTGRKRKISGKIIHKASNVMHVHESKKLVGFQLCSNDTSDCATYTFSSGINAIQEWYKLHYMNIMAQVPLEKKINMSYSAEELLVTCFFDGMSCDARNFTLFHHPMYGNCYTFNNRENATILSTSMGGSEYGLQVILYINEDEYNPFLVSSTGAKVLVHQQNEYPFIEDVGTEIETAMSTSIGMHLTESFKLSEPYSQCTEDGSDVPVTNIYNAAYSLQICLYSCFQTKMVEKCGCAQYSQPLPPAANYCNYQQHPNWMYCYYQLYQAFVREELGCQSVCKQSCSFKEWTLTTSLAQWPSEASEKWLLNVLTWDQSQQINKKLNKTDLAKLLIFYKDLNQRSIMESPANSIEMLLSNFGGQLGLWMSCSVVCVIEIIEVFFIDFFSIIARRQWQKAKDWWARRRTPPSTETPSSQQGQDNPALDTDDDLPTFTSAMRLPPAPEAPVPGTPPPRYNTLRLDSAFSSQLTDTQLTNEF
Experiment description: Ussing chamber: inhibition of amiloride sensitive short circuit current (I_sc) in M-1 cells
Assay conditions: mouse kidney M-1 cells
pIC50: −log10 of the molar value.
Measured metric: pIC50

Substance smiles	pIC50
NC(=NC(=O)c1nc(Cl)c(N)nc1N)NC1CCN(Cc2ccc(Cn3cc(C(=O)O)ccc3=O)cc2)CC1	7.41
COc1cc(CN2CCC(NC(N)=NC(=O)c3nc(Cl)c(N)nc3N)CC2)cc(C(=O)O)c1	7.77
NC(=NC(=O)c1nc(Cl)c(N)nc1N)NC1CCN(Cc2ccc(CCc3cccnc3)cc2)CC1	8.30
NC(=NC(=O)c1nc(Cl)c(N)nc1N)NC1CCN(Cc2ccc(OCc3cn(CCOCCOCCOCCO)nn3)cc2)CC1	7.92

(A) NC(=NC(=O)c1nc(Cl)c(N)nc1N)NC1CCN(Cc2ccc(-c3cn(CCOCCOCCOCCOCCOCCOCCOCCO)nn3)cc2)CC1
(B) CN(C)CCNC(=O)c1ccc(CN2CCC(NC(N)=NC(=O)c3nc(Cl)c(N)nc3N)CC2)cc1
(C) NC(=NC(=O)c1nc(Cl)c(N)nc1N)NC1CCN(Cc2ccc(-n3cc(COCCO)nn3)cc2)CC1
stdin: Order the records, beginning with the lowest pIC50 and ending with the highest. In your reply, arrange the labels in the requested order.
stdout: A, C, B
